Tested on: TRPC4 beta (transient receptor potential cation channel C4), mouse
Test description: positive allosteric modulators of mouse TRPC4, confirmation, cell-based, Fluo-4, HEK293 TRPC4beta/mu-opioid (AID 2555)
Stated conditions: DAMGO EC20, Fluo-4 calcium flux, at 10 µM
Activity calls are given as the source filed them.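 The calls were made as follows: active = primary screen hit whose calcium fluorescence ratio, in both repeats, exceeds the weak agonist control mean by 3 SD; inactive = the rest.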
Test readout: potentiation

Sample answers from the record:
Molecule smiles	Test readout	Result
C/C(=N/NC(=O)c1ccc(Cn2cccn2)o1)c1cccc(NC(=O)c2ccncc2)c1	potentiation	inactive
CCn1c(N)[n+](CC(=O)Nc2ccc(SC(F)F)cc2)c2ccccc21	potentiation	inactive
CCN(CC)CCSc1nc2ccc(OC)cc2[nH]1	potentiation	inactive
CCOC(=O)[C@@H]1CCNC[C@@H]1c1ccccc1	potentiation	inactive

Field potentiation (entry O=C(Nc1nnc(-c2ccccc2Cl)o1)c1nc2ccccc2s1 ) reads inactive
